Where do the numbers come from? From the OPERA property sets (Mansouri et al. 2018).

measuredAttribute: logP
// return a plain number; no unit text

compound	logP
O=C1c2ccccc2C(=O)C1C(=O)C(c1ccccc1)c1ccccc1	4.27
Cc1nc(NCc2ccccc2)nc(C(Cl)(Cl)Cl)n1	3.86
N=C(N)NN=Cc1ccc([N+](=O)[O-])cc1	0.87
Clc1cc(Cl)c(-c2ccc(Cl)c(Cl)c2Cl)cc1Cl	7.44

Let me know recorded logP for Clc1ccc(Cn2cncn2)cc1 , thanks.
1.84

Give reported logP value for CC1=CC(=NNC(=N)N)C=CC1=NNC(N)=S
1.66

For CC(O)CNc1ncc(-c2ccncc2)cc1C#N (configuration not stated) , write its logP.
0.79

Return logP (reported value) for this compound: CN1CC(C(=O)O)CC1=O (configuration not stated)
-1.5

Consider the compound ClCC1CO1 (configuration not stated) and give its recorded logP.
0.45
